- Measurement Target: T1, rat amylin receptor (rat calcitonin receptor + rat RAMP 3) (rat, UniProt P32214 25-516; Q9JJ73 23-147)
- T1 construct: whole, on cells; Used as membranes prepared from the transfected cells; also called rAmylin-R; rat amylin 3(a) receptor
- T1 sequence (looked up) 1: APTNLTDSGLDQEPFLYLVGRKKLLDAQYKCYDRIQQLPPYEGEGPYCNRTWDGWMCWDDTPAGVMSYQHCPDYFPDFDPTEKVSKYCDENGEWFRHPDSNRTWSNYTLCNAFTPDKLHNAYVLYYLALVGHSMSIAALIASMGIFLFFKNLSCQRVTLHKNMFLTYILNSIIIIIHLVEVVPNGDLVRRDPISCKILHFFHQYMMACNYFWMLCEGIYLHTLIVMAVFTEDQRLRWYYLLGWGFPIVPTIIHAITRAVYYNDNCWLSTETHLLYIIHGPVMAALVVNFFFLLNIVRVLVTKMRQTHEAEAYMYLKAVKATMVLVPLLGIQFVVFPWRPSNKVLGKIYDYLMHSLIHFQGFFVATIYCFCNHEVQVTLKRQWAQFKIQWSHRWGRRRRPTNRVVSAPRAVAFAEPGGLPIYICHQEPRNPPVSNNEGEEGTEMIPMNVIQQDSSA
- T1 sequence (looked up) 2: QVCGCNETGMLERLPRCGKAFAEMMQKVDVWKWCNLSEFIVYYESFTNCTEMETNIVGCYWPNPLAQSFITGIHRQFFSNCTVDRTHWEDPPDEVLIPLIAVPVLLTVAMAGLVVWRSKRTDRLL
- Test: SPA competition with 125I-rat amylin, membranes of BHK cells with rat calcitonin receptor + rat RAMP3 (Assay VI)
Measurement Type: pIC50
To interpret pIC50, take it as minus log10 of a concentration measured in moles per litre.

Query block: Requested field: pIC50. Item: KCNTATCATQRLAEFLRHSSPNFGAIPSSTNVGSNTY (C20 diacid-gGlu-2xOEG acylated on the alpha amino group of the N-terminal residue (Lys 1); disulfide Cys2-Cys7; C-terminal amide, Derivative of human amylin; also called compound 19)
Result block: 8.99

Query block: Requested field: pIC50. Item: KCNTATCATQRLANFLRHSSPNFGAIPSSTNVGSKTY (C20 diacid-gGlu acylated on the alpha amino group of the N-terminal residue (Lys 1); disulfide Cys2-Cys7; C-terminal amide, Derivative of human amylin; also called compound 34) [N^α1-[(4S)-4-carboxy-4-(19-carboxynonadecanoylamino)butanoyl]-[Arg17,Pro21,Pro27,Lys35]-h-amylin]
Result block: 8.77

Query block: Requested field: pIC50. Item: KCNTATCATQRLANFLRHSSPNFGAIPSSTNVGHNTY (C20 diacid-gGlu acylated on the alpha amino group of the N-terminal residue (Lys 1); disulfide Cys2-Cys7; C-terminal amide, Derivative of human amylin; also called compound 40) [N^α1-[(4S)-4-carboxy-4-(19-carboxynonadecanoylamino)butanoyl]-[Arg17,Pro21,Pro27,His34]-h-amylin]
Result block: 8.82

Query block: Requested field: pIC50. Item: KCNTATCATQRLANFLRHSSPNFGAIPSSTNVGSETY (C20 diacid-gGlu acylated on the alpha amino group of the N-terminal residue (Lys 1); disulfide Cys2-Cys7; C-terminal amide, Derivative of human amylin; also called compound 23) [N^α1-[(4S)-4-carboxy-4-(19-carboxynonadecanoylamino)butanoyl]-[Arg17,Pro21,Pro27,Glu35]-h-amylin]
Result block: 8.95

Query block: Requested field: pIC50. Item: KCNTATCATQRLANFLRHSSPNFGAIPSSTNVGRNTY (C20 diacid-gGlu acylated on the alpha amino group of the N-terminal residue (Lys 1); disulfide Cys2-Cys7; C-terminal amide, Derivative of human amylin; also called compound 39) [N^α1-[(4S)-4-carboxy-4-(19-carboxynonadecanoylamino)butanoyl]-[Arg17,Pro21,Pro27,Arg34]-h-amylin]
Result block: 8.75

Query block: Requested field: pIC50. Item: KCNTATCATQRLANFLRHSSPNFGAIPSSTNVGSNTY (C20 diacid-gGlu-2xOEG acylated on the alpha amino group of the N-terminal residue (Lys 1); disulfide Cys2-Cys7; C-terminal amide, Derivative of human amylin; also called compound 24)
Result block: 8.52

Value source: patent US20140087995A1
